conditions: in acetonitrile, 313.15 K
readout.name: solubility (mole fraction)
Just the number, please.

Problem: Item under review: `CCCCCCC1(CCCCCC)c2cc(Br)ccc2-c2ccc(Br)cc21` . Reported solubility (mole fraction)?
Result: 0.000954

* * *

details: in methanol, 323.15 K
readout.name: solubility (mole fraction)
Just the number, please.

Problem: Item under review: `CCCCCCC1(CCCCCC)c2cc(Br)ccc2-c2ccc(Br)cc21` . Reported solubility (mole fraction)?
Result: 0.000582

* * *

conditions: in ethyl acetate, 283.15 K
readout.name: solubility (mole fraction)
Just the number, please.

Problem: Item under review: `CCCCCCC1(CCCCCC)c2cc(Br)ccc2-c2ccc(Br)cc21` . Reported solubility (mole fraction)?
Result: 0.0433

* * *

settings: in n-hexane, 313.15 K
readout.name: solubility (mole fraction)
Just the number, please.

Problem: Item under review: `CCCCCCC1(CCCCCC)c2cc(Br)ccc2-c2ccc(Br)cc21` . Reported solubility (mole fraction)?
Result: 0.123

* * *

conditions: in ethanol, 283.15 K
readout.name: solubility (mole fraction)
Just the number, please.

Problem: Item under review: `CCCCCCC1(CCCCCC)c2cc(Br)ccc2-c2ccc(Br)cc21` . Reported solubility (mole fraction)?
Result: 0.00158

* * *

conditions: in chloroform, 313.15 K
readout.name: solubility (mole fraction)
Just the number, please.

Problem: Item under review: `CCCCCCC1(CCCCCC)c2cc(Br)ccc2-c2ccc(Br)cc21` . Reported solubility (mole fraction)?
Result: 0.0543

* * *

details: in chloroform, 323.15 K
readout.name: solubility (mole fraction)
Just the number, please.

Problem: Item under review: `CCCCCCC1(CCCCCC)c2cc(Br)ccc2-c2ccc(Br)cc21` . Reported solubility (mole fraction)?
Result: 0.0613

* * *

settings: in methanol, 283.15 K
readout.name: solubility (mole fraction)
Just the number, please.

Problem: Item under review: `CCCCCCC1(CCCCCC)c2cc(Br)ccc2-c2ccc(Br)cc21` . Reported solubility (mole fraction)?
Result: 0.000142

* * *

conditions: in ethanol, 303.15 K
readout.name: solubility (mole fraction)
Just the number, please.

Problem: Item under review: `CCCCCCC1(CCCCCC)c2cc(Br)ccc2-c2ccc(Br)cc21` . Reported solubility (mole fraction)?
Result: 0.00209

* * *

conditions: in acetonitrile, 303.15 K
readout.name: solubility (mole fraction)
Just the number, please.

Problem: Item under review: `CCCCCCC1(CCCCCC)c2cc(Br)ccc2-c2ccc(Br)cc21` . Reported solubility (mole fraction)?
Result: 0.000684

* * *

settings: in toluene, 293.15 K
readout.name: solubility (mole fraction)
Just the number, please.

Problem: Item under review: `CCCCCCC1(CCCCCC)c2cc(Br)ccc2-c2ccc(Br)cc21` . Reported solubility (mole fraction)?
Result: 0.121

* * *

conditions: in methanol, 303.15 K
readout.name: solubility (mole fraction)
Just the number, please.

Problem: Item under review: `CCCCCCC1(CCCCCC)c2cc(Br)ccc2-c2ccc(Br)cc21` . Reported solubility (mole fraction)?
Result: 0.000293

* * *

conditions: in dichloromethane, 303.15 K
readout.name: solubility (mole fraction)

Problem: Item under review: `CCCCCCC1(CCCCCC)c2cc(Br)ccc2-c2ccc(Br)cc21` . Reported solubility (mole fraction)?
Result: 0.0807

* * *

conditions: in n-hexane, 323.15 K
readout.name: solubility (mole fraction)
Just the number, please.

Problem: Item under review: `CCCCCCC1(CCCCCC)c2cc(Br)ccc2-c2ccc(Br)cc21` . Reported solubility (mole fraction)?
Result: 0.163

* * *

conditions: in ethyl acetate, 293.15 K
readout.name: solubility (mole fraction)
Just the number, please.

Problem: Item under review: `CCCCCCC1(CCCCCC)c2cc(Br)ccc2-c2ccc(Br)cc21` . Reported solubility (mole fraction)?
Result: 0.0613

* * *

details: in THF, 293.15 K
readout.name: solubility (mole fraction)
Just the number, please.

Problem: Item under review: `CCCCCCC1(CCCCCC)c2cc(Br)ccc2-c2ccc(Br)cc21` . Reported solubility (mole fraction)?
Result: 0.112

* * *

conditions: in 1,4-dioxane, 293.15 K
readout.name: solubility (mole fraction)
Just the number, please.

Problem: Item under review: `CCCCCCC1(CCCCCC)c2cc(Br)ccc2-c2ccc(Br)cc21` . Reported solubility (mole fraction)?
Result: 0.0466

* * *

conditions: in ethyl acetate, 303.15 K
readout.name: solubility (mole fraction)
Just the number, please.

Problem: Item under review: `CCCCCCC1(CCCCCC)c2cc(Br)ccc2-c2ccc(Br)cc21` . Reported solubility (mole fraction)?
Result: 0.0873

* * *

conditions: in acetonitrile, 283.15 K
readout.name: solubility (mole fraction)

Problem: Item under review: `CCCCCCC1(CCCCCC)c2cc(Br)ccc2-c2ccc(Br)cc21` . Reported solubility (mole fraction)?
Result: 0.000305

* * *

conditions: in 1,4-dioxane, 313.15 K
readout.name: solubility (mole fraction)
Just the number, please.

Problem: Item under review: `CCCCCCC1(CCCCCC)c2cc(Br)ccc2-c2ccc(Br)cc21` . Reported solubility (mole fraction)?
Result: 0.113

* * *

conditions: in n-hexane, 293.15 K
readout.name: solubility (mole fraction)

Problem: Item under review: `CCCCCCC1(CCCCCC)c2cc(Br)ccc2-c2ccc(Br)cc21` . Reported solubility (mole fraction)?
Result: 0.0578

* * *

conditions: in toluene, 283.15 K
readout.name: solubility (mole fraction)
Just the number, please.

Problem: Item under review: `CCCCCCC1(CCCCCC)c2cc(Br)ccc2-c2ccc(Br)cc21` . Reported solubility (mole fraction)?
Result: 0.0918

* * *

conditions: in dichloromethane, 283.15 K
readout.name: solubility (mole fraction)
Just the number, please.

Problem: Item under review: `CCCCCCC1(CCCCCC)c2cc(Br)ccc2-c2ccc(Br)cc21` . Reported solubility (mole fraction)?
Result: 0.0468

* * *

conditions: in ethyl acetate, 323.15 K
readout.name: solubility (mole fraction)
Just the number, please.

Problem: Item under review: `CCCCCCC1(CCCCCC)c2cc(Br)ccc2-c2ccc(Br)cc21` . Reported solubility (mole fraction)?
Result: 0.144

* * *

conditions: in n-hexane, 283.15 K
readout.name: solubility (mole fraction)
Just the number, please.

Problem: Item under review: `CCCCCCC1(CCCCCC)c2cc(Br)ccc2-c2ccc(Br)cc21` . Reported solubility (mole fraction)?
Result: 0.0382

Reference source for all entries: BigSolDB 2.1
